# Target of assay: Influenza virus A/Indonesia/5/2005/PR8-IBCDC-RG2 (H5N1) (Influenza A virus A/Indonesia/5/2005/PR8-IBCDC-RG2 (H5N1))
# Test protocol: cell-based or functional assay

Binder	Result units	Neutralizing activity (%) at 100 µg/ml
Group 35 representative clone F082-117, Fab-PP-type antibody (Fab, V domains shown) VH: QVQLVQSGSEVKKPGSSVKVSCKSSGGILRRSAISWVRQAPGQGLEWMGGILAIFGTTKYAQKFQGRITITADESTNTVHMELSSLRPDDTAVYYCAGGPHYYVSYFDSWGQGTLVTVSS VL: DIQMTQSPATLSLSPGERATLSCRASQSVRSYLAWYQQKPGQAPRLLIYDASNRATGIPARFSGSGSGTEFTLTISRLEPEDFAVYYCQQRSNWLFTFGPGTKVDFK	%	94.1
Group 51 representative clone F083-302, Fab-PP-type antibody (Fab, V domains shown) VH: QVQLVQSGAEVKKPGSSVKVSCEASGATFSSNAFSWVRQAPGQGPEWMGGIITMFRKAEYAQKFQGRVTITAGELGSTAYMEVRSLTFEDTAVYYCARHSGYHLIGYFDSWGQGTLVTVSS VL: QSVLTQPPSVSAAPGQKVTISCSGTTSNIGNNYVSWYQQLPGAAPKLLIYDNNKRPSGIPDRFSGSKSDTSATLGITGLQTGDEADYYCGTWVSSLSVWVFGGGTKLTVLG	%	72.9
Group 2 representative clone F082-220, Fab-PP-type antibody (Fab, V domains shown) VH: QVQLVQSGAEVKKPGSSVKVSCKASGGIFRSNAVSWVRQAPGQGLEWMGGIIAIFGTPKYAQKFQGRVTITADESTSTVYMELSGLRYEDTAVYYCARGPNYYESYFDYWGQGTLVTVSS VL: DIVMTQSPPSLSASVGDRVTITCRASQGISNYLAWYQQKPGKAPKLLIFGASTLHSGVSSRFSGSGSGPDFTLTISSLQPEDAATYYCQKYHSAPLTFGGGTKVEMK	%	90.6
Group 56 representative clone F083-318, Fab-PP-type antibody (Fab, V domains shown) VH: EVQLVQSGAEVKKPGSSVKVSCQASGSIFSNYAINWVRQAPGQGLEWMGGIVPIFGTTRFAQKFQGRLTITADEPRSTAYMELNNLISEDTAVYYCARAPLIYNWYYDLWGRGTLVTVSS VL: EIVLTQSPSSLSASVGDRVTITCRASQGISNYLAWYQQKPGKVPKLLIYAASTLQSGVPSRFSGSGSGTDFTLTISSLQPEDVATYYCQKYNSAPHTFGPGTKVDIK	%	-9.5
Group 64 representative clone F083-301, Fab-PP-type antibody (Fab, V domains shown) VH: QVQLVQSGAEVKKPGSSVKVSCKASGGIFNSNAISWVRQAPGQGLEWMGGIIGIFGTANYAQKFQGRVTIAADQSTNTVFMELSSLTSEDTAVYFCARSRGYSFGYGTDYFDYWGQGTLVTVSS VL: DIVMTQSPSTLSASVGDRVTITCRASQSISSWLAWYQQAPGKAPKLLIYEASKLQSGVPSRFSATGSGTEFTLTIASLQPEDFAIYYCQHYEAYPFSFGPGTKLDVK	%	40.6
Group 39 representative clone F082-237, Fab-PP-type antibody (Fab, V domains shown) VH: QVQLVQSGAEVKKPGSSVKVSCKASGGIFNKYGISWVRQAPGQGLEWMGGILAIFGTTNYAQKFQGRVTISADESSTTVYMELSSLTSEDTAVYYCARGNTYYSSYFDQWGQGTLVTVSS VL: QSVLTQPPSVSVAPGQTATITCGGDKIGTGPVHWYQQMPGRAPVLLIYASTHRPSRIPERFSGSKSDNTATLSISGVGVGDEADYYCQMWDSSSVHPIVFGGGTKLTVLS	%	31.2
Group 48 representative clone F083-389, Fab-PP-type antibody (Fab, V domains shown) VH: QVQLVQSGAEVKKPGSSVKVSCKASGDIFNKFAITWVRQAPGQGLEWMGGITALFATTSYAQKFQDRVTINWDESTTTAFMELSSLRFEDTAVYYCARGPNYYETYLDNWGQGTLVTVSS VL: EIVLTQSPTILSASVGDRVTITCRASQSISKWLAWYQQKPGKVPKLLIYMASTLESGVPSRFSGSGSGSEFTLTISSLQPGDFATYYCQQYNSYPRTFGQGTKVEINV	%	54.6
Group 37 representative clone F083-311, Fab-PP-type antibody (Fab, V domains shown) VH: QVQLVQSGSEVKKPGSSVKVSCKASGGIFRTNAISYVRQAPGQGLEWMGGITAIFGTPNYAQKFQGRVTIIADESTSTVYMELGSLTSEDTAVYYCATSGTYYVSYFDSWGQGTLVTVSS VL: DIVMTQSPGTLTLSPGERATLSCRASQSLYSSHLAWYQQKPGQPPRLLIYGASTRAPGTPDRFSGSGSGTDFTLTITALDPEDSAVYYCQQYGSSPITFGQGTRLEIK	%	90
Group 55 representative clone F083-305, Fab-PP-type antibody (Fab, V domains shown) VH: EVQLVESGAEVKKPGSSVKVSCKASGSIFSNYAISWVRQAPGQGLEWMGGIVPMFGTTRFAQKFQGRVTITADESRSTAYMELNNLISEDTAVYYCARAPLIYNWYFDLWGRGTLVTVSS VL: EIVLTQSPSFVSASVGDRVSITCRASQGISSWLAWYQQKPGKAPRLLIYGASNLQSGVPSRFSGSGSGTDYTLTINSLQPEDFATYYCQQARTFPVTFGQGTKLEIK	%	2.4
Group 1 representative clone F080-227, Fab-PP-type antibody (Fab, V domains shown) VH: QVQLQESGAEVKKPGSSVKVSCKASGGIFRRNAISWVRQAPGQGLEWMGGIIAIFGTANYAQKFQGRVTITADESTSTVYMELSSLRPEDTAVYYCARGPNYYENFFDYWGQGTLVTVSS VL: DIVMTQSPSSLSASVGDRLDLTCRASQDIANSLAWYKQRPGKAPELLVFGASRLEGGVPSRFSGTRAGTDFTLTISSLQPEDLGTYFCQQYFSFPRTFGQGTTLDLR	%	67.6
